Ki values, listed per item
Target: PIN1-CD (catalytic peptidyl-prolyl isomerase domain, devoid of the PIN1 WW domain) (Homo sapiens, UniProt Q13526)

{"columns": ["molecule", "result"],
 "data": [
  ["O=C(N[C@@H](COP(=O)(O)O)Cc1cccc(F)c1)c1ccc2ccccc2c1Br", "< 1000 nM"]
]}

Entry CC(C)(C)C(=O)N[C@@H](COP(=O)(O)O)Cc1cccc(F)c1 , Ki reported as < 1000 nM

For record O=C(O)[C@@H]1CCCCN1C(=O)N[C@@H](COP(=O)(O)O)Cc1ccccc1 [Example 16d] the listed Ki is < 10000 nM

Notebook: Cc1cccc(C[C@H](COP(=O)(O)O)NC(=O)c2ccc3ccccc3c2Br)c1 , Ki read as < 1000 nM

Given item O=C(N[C@@H](COP(=O)(O)O)Cc1cccc(F)c1)c1ccc2nc[nH]c2c1 , the value recorded as its Ki is < 1000 nM

# molecule COc1ccc2cc(C(=O)N[C@@H](COP(=O)(O)O)Cc3cccc(F)c3)ccc2c1 ; its Ki = < 1000 nM

Briefly, Ki measured for COc1ccc2cc(C(=O)N[C@@H](COP(=O)(O)O)Cc3cccc(C)c3)ccc2c1 : < 1000 nM

----------
Catalogue of pKd values
Biological target: PIN1-CD (catalytic PIN1 domain, devoid of the PIN1 WW domain) (Homo sapiens, UniProt Q13526)
Sequence (Q13526 52-163 limits assumed): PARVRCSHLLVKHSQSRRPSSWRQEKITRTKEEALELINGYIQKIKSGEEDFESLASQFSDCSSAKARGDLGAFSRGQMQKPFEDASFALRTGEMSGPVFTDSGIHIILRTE
pKd: −log10 of the molar value.

Recorded pKd, per entry:
{"columns": ["molecule", "pKd"],
 "data": [
  ["O=C(OCCCCc1ccccc1)[C@@H]1CCCCN1S(=O)(=O)N[C@@H](COP(=O)(O)O)Cc1ccccc1", "> 5.00"],
  ["COc1ccc2cc(C(=O)N[C@@H](COP(=O)(O)O)Cc3ccccc3)ccc2c1", "> 6.00"],
  ["O=C(N[C@@H](COP(=O)(O)O)Cc1ccccc1)c1cccc2ccccc12", "> 6.00"]
]}

Here's the next entry for you.
The reported value for COc1cc(NC(=O)N[C@@H](COP(=O)(O)O)Cc2ccccc2)cc(OC)c1 [Example 23d] in terms of pKd is > 6.00

----------
compounds and their reported pKi
Target: PIN1-CD (catalytic peptidyl-prolyl isomerase domain, devoid of the PIN1 WW domain) (Homo sapiens)
pKi: −log10 of the molar value.

Sample answers from the record:
{"columns": ["compound", "pKi"],
 "data": [
  ["CN(C)c1cccc2c(S(=O)(=O)N[C@@H](COP(=O)(O)O)Cc3cccc(F)c3)cccc12 [Example 42]", "> 5.00"],
  ["O=C(OCCCCc1ccccc1)[C@@H]1CCCCN1S(=O)(=O)N[C@@H](COP(=O)(O)O)Cc1ccccc1 [Example 5b1]", "> 5.00"],
  ["O=P(O)(O)OC[C@@H](Cc1ccccc1)NS(=O)(=O)N1CCCC[C@H]1c1nnc(Cc2ccccc2)o1 [Example 5b5]", "> 5.00"],
  ["O=C(O[C@@H](COP(=O)(O)O)Cc1cccc(F)c1)c1ccc2ccccc2c1 [Example 74]", "> 6.00"],
  ["CC(C)(C)OC(=O)N[C@@H](COP(=O)(O)O)Cc1cccnc1 [Example 30]", "> 4.00"],
  ["O=C(N[C@@H](CCP(=O)(O)O)Cc1cccc(F)c1)c1cc2ccccc2s1 [Example 71]", "> 6.00"],
  ["CC(C)C(=O)N[C@@H](COP(=O)(O)O)Cc1ccccc1 [Example 25-15]", "> 5.00"],
  ["CN(C)c1cccc2c(S(=O)(=O)N[C@@H](COP(=O)(Oc3ccccc3)Oc3ccccc3)Cc3cccc(F)c3)cccc12 [Example 86]", "> 4.00"],
  ["O=C(N[C@@H](COP(=O)(O)O)Cc1ccccc1)c1ccc2[nH]cnc2c1 [Example 25-23]", "> 6.00"],
  ["CC(=O)N[C@@H](COP(=O)(O)O)Cc1ccccc1 [Example 25-40]", "> 5.00"]
]}

Reported pKi ( CC(C)(C)C(=O)N[C@@H](COP(=O)(O)O)Cc1ccccc1 [Example 25-16] ) = > 6.00

pKi recorded for this compound, CCN(CC)c1ccc2cc(C(=O)N[C@@H](COP(=O)(O)O)Cc3cccc(F)c3)c(=O)oc2c1 [Example 25-33] , is > 6.00

Query CC(=O)OCOP(=O)(OCOC(C)=O)OC[C@@H](Cc1cccc(F)c1)NC(=O)c1cc2ccccc2s1 [Example 85] yields pKi of > 4.00

Short answer for O=C(O[C@@H](COP(=O)(O)O)Cc1ccccc1)c1ccc2ccccc2c1 [Example 49] : pKi was > 6.00
